- experimentalDetails: Acidity (pH) of xylitol crystal by the Chinese Pharmacopoeia method, 10 g crystal to 20 ml water
- Assay type: physicochemical
- testConditions: crystal stored at room temperature for one week; 10 g crystal to 20 ml pure water
valueKind: pH of xylitol after one week storage
Number only, no unit.

What value of measured pH of xylitol after one week storage is listed for OC[C@@H](O)[C@H](O)[C@@H](O)CO [Example 1, xylitol] ?
6.03

Reported pH of xylitol after one week storage for OC[C@@H](O)[C@H](O)[C@@H](O)CO [compound 3, xylitol] : what is it?
4.90

Look at this molecule and give its reported pH of xylitol after one week storage. OC[C@@H](O)[C@H](O)[C@@H](O)CO [compound 1, xylitol]
4.85

Any idea what its pH of xylitol after one week storage is? The molecule is OC[C@@H](O)[C@H](O)[C@@H](O)CO [Example 3, xylitol]
6.07

pH of xylitol after one week storage for OC[C@@H](O)[C@H](O)[C@@H](O)CO [compound 2, xylitol] ?
4.81

Returns the measured pH of xylitol after one week storage for the input molecule. Input: OC[C@@H](O)[C@H](O)[C@@H](O)CO [Example 2, xylitol]
6.08

* * *

- experimentalDetails: Acidity (pH) of xylitol crystal by the Chinese Pharmacopoeia method, 10 g crystal to 20 ml water
- Type: physicochemical
- testConditions: freshly prepared crystal; 10 g crystal to 20 ml pure water
Would you mind telling me the reported pH of xylitol of each entry?
// keep it numeric: no unit symbol after the value

Looking for the measured pH of xylitol of OC[C@@H](O)[C@H](O)[C@@H](O)CO [Example 3, xylitol] , can you help?
6.09

Dear colleague, I am looking for the recorded pH of xylitol of the following molecule: OC[C@@H](O)[C@H](O)[C@@H](O)CO [compound 3, xylitol]
5.03

Consider the molecule shown here: OC[C@@H](O)[C@H](O)[C@@H](O)CO [Example 1, xylitol] What is its recorded pH of xylitol?
6.06

I would be grateful if you could share the reported pH of xylitol for OC[C@@H](O)[C@H](O)[C@@H](O)CO [compound 1, xylitol] .
5.02

Item under review: OC[C@@H](O)[C@H](O)[C@@H](O)CO [Example 2, xylitol] . Reported pH of xylitol?
6.12

Can you look up the measured pH of xylitol of OC[C@@H](O)[C@H](O)[C@@H](O)CO [compound 2, xylitol] for me?
5.04

* * *

Kindly state pH of xylitol after one month storage for each of the entries shown.
- experimentalDetails: Acidity (pH) of xylitol crystal by the Chinese Pharmacopoeia method, 10 g crystal to 20 ml water
- Type: physicochemical
- testConditions: crystal stored at room temperature for one month; 10 g crystal to 20 ml pure water
- Method: The acidity of prepared xylitol crystal B was measured according to the method in the Chinese Pharmacopoeia. Xylitol solution was prepared with pure water in a proportion of 10 g crystal to 20 ml water. The pH of the xylitol solution in this Example was measured to be 6.06. After the obtained xylitol crystal B were stored at room temperature for one week, the pH of the xylitol solution was measured to be 6.03 using the same method. […]
No unit in the answer, please; the number alone is enough.

Dear colleague, I am looking for the recorded pH of xylitol after one month storage of the following molecule: OC[C@@H](O)[C@H](O)[C@@H](O)CO [Example 2, xylitol]
6.05

Which value of pH of xylitol after one month storage has been reported for OC[C@@H](O)[C@H](O)[C@@H](O)CO [compound 1, xylitol] in the records?
4.64

Given the entry OC[C@@H](O)[C@H](O)[C@@H](O)CO [compound 3, xylitol] , report its measured pH of xylitol after one month storage.
4.73

Could you share which pH of xylitol after one month storage value was measured for OC[C@@H](O)[C@H](O)[C@@H](O)CO [Example 1, xylitol] ?
6.01

Could you tell me which pH of xylitol after one month storage is on file for OC[C@@H](O)[C@H](O)[C@@H](O)CO [Example 3, xylitol] ?
6.05

Fill in the blank: the reported pH of xylitol after one month storage of OC[C@@H](O)[C@H](O)[C@@H](O)CO [compound 2, xylitol] is ____.
4.68

src = patent US12187667B2
